Biological target: Kv11.1 (hERG) ion channel (Homo sapiens (Human), UniProt Q12809)
Sequence (Q12809 whole entry): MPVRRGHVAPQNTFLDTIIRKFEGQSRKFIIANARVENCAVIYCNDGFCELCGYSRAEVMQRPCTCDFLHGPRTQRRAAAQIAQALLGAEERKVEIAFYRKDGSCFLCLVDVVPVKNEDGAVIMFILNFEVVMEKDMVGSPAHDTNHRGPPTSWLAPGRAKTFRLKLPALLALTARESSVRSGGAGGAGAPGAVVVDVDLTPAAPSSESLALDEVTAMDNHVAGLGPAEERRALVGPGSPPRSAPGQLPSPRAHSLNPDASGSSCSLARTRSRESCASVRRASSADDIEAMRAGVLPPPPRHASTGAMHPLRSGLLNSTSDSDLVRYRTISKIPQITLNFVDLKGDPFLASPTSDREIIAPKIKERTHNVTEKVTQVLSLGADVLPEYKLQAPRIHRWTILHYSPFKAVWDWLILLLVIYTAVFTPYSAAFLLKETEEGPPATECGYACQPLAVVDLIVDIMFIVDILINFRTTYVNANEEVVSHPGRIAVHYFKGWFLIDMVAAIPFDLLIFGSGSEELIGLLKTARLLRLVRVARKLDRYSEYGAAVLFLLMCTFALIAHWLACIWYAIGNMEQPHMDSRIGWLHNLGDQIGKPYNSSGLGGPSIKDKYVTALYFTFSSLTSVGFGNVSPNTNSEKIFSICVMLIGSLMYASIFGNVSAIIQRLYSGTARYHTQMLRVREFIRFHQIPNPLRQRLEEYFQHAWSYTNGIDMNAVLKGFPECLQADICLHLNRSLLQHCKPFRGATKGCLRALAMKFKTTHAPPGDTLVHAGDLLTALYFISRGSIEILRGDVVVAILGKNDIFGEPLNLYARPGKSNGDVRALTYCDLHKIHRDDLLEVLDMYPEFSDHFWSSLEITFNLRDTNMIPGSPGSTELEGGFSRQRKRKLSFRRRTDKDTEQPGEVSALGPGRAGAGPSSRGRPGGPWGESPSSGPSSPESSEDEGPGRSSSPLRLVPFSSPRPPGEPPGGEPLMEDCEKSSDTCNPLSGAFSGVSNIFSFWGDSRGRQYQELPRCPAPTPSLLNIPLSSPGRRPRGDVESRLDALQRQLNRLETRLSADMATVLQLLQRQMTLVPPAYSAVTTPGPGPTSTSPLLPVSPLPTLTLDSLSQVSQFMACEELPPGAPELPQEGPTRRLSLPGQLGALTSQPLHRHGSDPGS
Experiment: Kv11.1 (hERG) ion channel activity, whole cell patch clamp in HEK293
Type: cell-based
Conditions: @ 10 μM
Method: Kv11.1 (hERG) Ion Channel Activity In this assay, a potential in vitro effect of test compounds on the Kv11.1 (hERG) ion channel current is investigated which mediates the rapidly activating, delayed rectifier cardiac potassium current (IKr). […] The Kv11.1 (hERG) ion channel blocker quinidine is used as reference compound. […] Afterwards DMSO (vehicle control, 0.1% DMSO) is applied and the control current is measured for 3 min. […] Results are calculated from the last recorded current traces. […]
Please go through the items and note down their hERG % effect @ conc.
In your response, put the unit directly after the numeric value.

Cc1cc(S(C)(=O)=O)ncc1-c1cc(N2CCOC[C@H]2C)nc2c(-c3cc[nH]n3)nn(C)c12 [Compound 17] = 5%
Cc1ccccc1-c1cc(N2CCOC[C@H]2C)nc2c(-c3ccn[nH]3)nn(C)c12 [Compound 49] = −18%
C[C@@H]1COCCN1c1cc(C2CCOCC2)c2c(n1)c(-c1ccn[nH]1)nn2C [Compound 55] = −14%
C[C@@H]1COCCN1c1cc(-c2ccn(CCF)n2)c2c(n1)c(-c1cc[nH]n1)nn2C [Compound 34] = −1%
C[C@@H]1COCCN1c1cc(-c2ccncc2F)c2c(n1)c(-c1cc[nH]n1)nn2C [Compound 20] = −11%
C[C@@H]1COCCN1c1cc(-c2ccc(S(C)(=O)=O)cc2)c2c(n1)c(-c1cc[nH]n1)nn2C [Compound 7] = −16%
C[C@@H]1COCCN1c1cc(C2CCCOC2)c2c(n1)c(-c1ccn[nH]1)nn2C (some centres unmarked) [Compound 67] = −12%

Find the recorded hERG % effect @ conc belonging to C[C@@H]1COCCN1c1cc(-c2ccc([S+](C)[O-])cc2)c2c(n1)c(-c1cc[nH]n1)nn2C (some centres unmarked) [Compound 5] and report it.
−22%
